Entry source: patent US12285431B2

tested on: MCF7 (breast adenocarcinoma, Rb-positive); assay: Cellular proliferation assay (CellTiter-Glo), MCF7; assay type: cell-based; conditions: Homo sapiens, MCF7, 144 h, cell viability after six days
MEASURED ENDPOINT: EC50 (nM)
The answer is to be given in nM; state only the numeric part.

Quick note, EC50 for O=C1NCC2(CCCCC2)n2c1cc1cnc(Nc3ccc(N4CCC(N5CCOCC5)CC4)cn3)nc12 landed at 70

Record summary for CC(C)N1CCN(c2ccc(Nc3ncc4cc5n(c4n3)C3(CCCCC3)CNC5=O)nc2)C[C@@H]1C : reported EC50 = 47

----------
Tested on: MCF7 (breast adenocarcinoma, Rb-positive)
Experiment: Cellular proliferation assay (CellTiter-Glo), MCF7
Format: cell-based
Details: Homo sapiens, MCF7, 144 h, cell viability after six days
Procedure: Further cellular proliferation assays were conducted using the following cancer cell lines: MCF7 (breast adenocarcinoma—Rb-positive), ZR-75-1 (breast ductal carcinoma—Rb-positive), H69 (human small cell lung cancer—Rb-negative) cells, or A2058 (human metastatic melanoma cells—Rb-negative). […] Plates were read on BioTek (Winooski, Vermont) Syngergy2 multi-mode plate reader. […]
Hi! Just check whether EC50 is below 0.09 µM. Below gives label 1, equal or above gives label 0.

Task: Identify whether the compound O=C1NCC2(CCCC2)n2c1cc1cnc(Nc3ccc(C(=O)N4CCN(CC5CC5)CC4)cn3)nc12 records EC50 below 0.09 µM.
Output: label 0

Task: State whether 0.09 µM exceeds EC50 recorded for CN(C)C1CCN(c2ccc(Nc3ncc4cc5n(c4n3)C3(CCCC3)CNC5=O)nc2)CC1 .
Output: label 0

Task: Is the reported EC50 for CC(C)N1CCN(c2ccc(Nc3ncc4cc5n(c4n3)C3(CCCCC3)CNC5=O)nc2)C[C@H]1C strictly below 0.09 µM?
Output: label 0

Task: Is 0.09 µM strictly greater than the compound's reported EC50? compound: O=C1NCC2(CCCCC2)n2c1cc1cnc(Nc3ccc(N4CCC(N5CCCCC5)CC4)cn3)nc12
Output: label 1

Task: Please check: EC50 for CCC(C)CN1CCN(c2ccc(Nc3ncc4cc5n(c4n3)C3(CCCC3)CNC5=O)nc2)CC1 (stereo not drawn) , strictly under 0.09 µM or not?
Output: label 0

Task: Given the entry C[C@@H](O)CN1CCN(c2ccc(Nc3ncc4cc5n(c4n3)C3(CCCCC3)CNC5=O)nc2)CC1 , would its reported EC50 be below 0.09 µM?
Output: label 1

Task: Find out if reported EC50 for CN1CCN(c2ccc(Nc3ncc4cc5n(c4n3)C3(CCCCC3)CNC5=O)nc2)CC1 is less than 0.09 µM
Output: label 1

Task: Dear colleague, could you confirm whether EC50 of CN(C)C1CCN(c2ccc(Nc3ncc4cc5n(c4n3)C3(CCCCC3)CNC5=O)nn2)CC1 falls below 0.09 µM? Thanks.
Output: label 0

Task: In the record for CC(C)N1CCN(c2ccc(Nc3ncc4cc5n(c4n3)C3(CCCCC3)CNC5=O)nc2)CC1 , is EC50 less than 0.09 µM?
Output: label 1

Task: Given the entry C[C@H]1CN(c2ccc(Nc3ncc4cc5n(c4n3)C3(CCCCC3)CNC5=O)nc2)CCN1CC1CC1 , would its reported EC50 be below 0.09 µM?
Output: label 0

Task: Is EC50 strictly under 0.09 µM for the entry CCN(CC)C1CCN(c2ccc(Nc3ncc4cc5n(c4n3)C3(CCCCC3)CNC5=O)nc2)CC1 ?
Output: label 1

Task: Decide: EC50 of C[C@H]1CN(c2ccc(Nc3ncc4cc5n(c4n3)C3(CCCCC3)CNC5=O)nc2)CCN1C strictly below 0.09 µM?
Output: label 1

Task: Determine whether this compound shows EC50 lower than 0.09 µM (ties excluded): CN1CCN(c2ccc(Nc3ncc4cc5n(c4n3)C3(CCCCC3)CNC5=O)nc2)CC1(C)C
Output: label 1

Task: Could you please tell me whether EC50 recorded for CC1(C)CN(c2ccc(Nc3ncc4cc5n(c4n3)C3(CCCCC3)CNC5=O)nc2)CCN1CC1CC1 is less than 0.09 µM?
Output: label 1

Task: Hi there! Is EC50 for CC1CCN(C2CCN(c3ccc(Nc4ncc5cc6n(c5n4)C4(CCCCC4)CNC6=O)nc3)CC2)C1 (stereo not drawn) below 0.09 µM, do you know?
Output: label 1
